ASSAY_SYSTEM: UniProt:P20309
Sequence (P20309 whole entry): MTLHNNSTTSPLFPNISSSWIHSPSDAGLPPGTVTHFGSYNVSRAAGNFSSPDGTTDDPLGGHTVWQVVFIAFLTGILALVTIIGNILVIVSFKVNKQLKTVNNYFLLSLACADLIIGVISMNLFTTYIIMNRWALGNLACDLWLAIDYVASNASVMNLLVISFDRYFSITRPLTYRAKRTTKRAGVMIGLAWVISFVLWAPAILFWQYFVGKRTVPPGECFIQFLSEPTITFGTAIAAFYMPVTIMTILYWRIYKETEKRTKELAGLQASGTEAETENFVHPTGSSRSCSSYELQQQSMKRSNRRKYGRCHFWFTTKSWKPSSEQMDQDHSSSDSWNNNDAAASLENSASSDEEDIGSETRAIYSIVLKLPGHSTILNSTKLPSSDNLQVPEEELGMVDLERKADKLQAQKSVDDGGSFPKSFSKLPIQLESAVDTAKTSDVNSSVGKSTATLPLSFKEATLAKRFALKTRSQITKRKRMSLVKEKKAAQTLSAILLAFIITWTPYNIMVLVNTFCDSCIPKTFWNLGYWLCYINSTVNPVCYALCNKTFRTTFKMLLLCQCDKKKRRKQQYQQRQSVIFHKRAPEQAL
PROCEDURE_TEXT: Displacement of [3H]NMS from recombinant human M3 receptor expressed in CHO-K1 cells after 16 hrs by SPA method
PARAMETER_MEASURED: pIC50
Note on pIC50: it is the negative log10 of concentration, concentration in mol/L.

Recall and state the measured pIC50 for O=C(C[N+]12CCC(CC1)[C@@H](OC(=O)C1(C3=CC=CC3)CCCCCC1)C2)Nc1cccc(F)c1 .
9.90

Recall and state the measured pIC50 for Cc1nccc(NC(=O)C[N+]23CCC(CC2)[C@@H](OC(=O)C2(C4=CC=CC4)CCCCCC2)C3)n1 .
9.40

Recall and state the measured pIC50 for O=C(C[N+]12CCC(CC1)[C@@H](OC(=O)C1(C3=CC=CC3)CCCCCC1)C2)Nc1ncns1 .
9.40

Recall and state the measured pIC50 for O=C(O[C@H]1C[N+]2(Cc3ccc(F)c(F)c3)CCC1CC2)C1(C2=CC=CC2)CCCCCC1 .
7.40

Recall and state the measured pIC50 for O=C(C[N+]12CCC(CC1)[C@@H](OC(=O)C1(C3=CC=CC3)CCCCCC1)C2)Nc1nncs1 .
8.10

Recall and state the measured pIC50 for O=C(O[C@H]1C[N+]2(CCOc3ccccc3)CCC1CC2)C1(C2=CC=CC2)CCCCCC1 .
9.80

Recall and state the measured pIC50 for O=C(C[N+]12CCC(CC1)[C@@H](OC(=O)C1(C3=CC=CC3)CCCCCC1)C2)NCCNC(=O)c1cnccn1 .
8.50

Recall and state the measured pIC50 for O=C(C[N+]12CCC(CC1)[C@@H](OC(=O)C1(C3=CC=CC3)CCCCCC1)C2)Nc1ccc(C(F)(F)F)nn1 .
8.60

Recall and state the measured pIC50 for Cc1ccc(NC(=O)C[N+]23CCC(CC2)[C@@H](OC(=O)C2(C4=CC=CC4)CCCCCC2)C3)nn1 .
9.10

Recall and state the measured pIC50 for Cc1ccnc(NC(=O)C[N+]23CCC(CC2)[C@@H](OC(=O)C2(C4=CC=CC4)CCCCCC2)C3)c1 .
9.10

Recall and state the measured pIC50 for Cc1ccc(CCC[N+]23CCC(CC2)[C@@H](OC(=O)C2(C4=CC=CC4)CCCCCC2)C3)c(C)n1 .
9.00

Recall and state the measured pIC50 for O=C(C[N+]12CCC(CC1)[C@@H](OC(=O)C1(C3=CC=CC3)CCCCCC1)C2)Nc1ncccc1F .
9.60

Recall and state the measured pIC50 for O=C(C[N+]12CCC(CC1)[C@@H](OC(=O)C1(C3=CC=CC3)CCCCCC1)C2)N1CCOCC1 .
7.00

Recall and state the measured pIC50 for NC(=O)C[N+]12CCC(CC1)[C@@H](OC(=O)C1(C3=CC=CC3)CCCCCC1)C2 .
9.70

Recall and state the measured pIC50 for O=C(O[C@H]1C[N+]2(CCCOc3ccccc3)CCC1CC2)C1(C2=CC=CC2)CCCCCC1 .
10.20

Recall and state the measured pIC50 for O=C(O[C@H]1C[N+]2(CCOCc3ccccc3)CCC1CC2)C1(C2=CC=CC2)CCCCCC1 .
9.90

Recall and state the measured pIC50 for N#Cc1ccc(CC[N+]23CCC(CC2)[C@@H](OC(=O)C2(C4=CC=CC4)CCCCCC2)C3)cc1 .
8.50
